test system: SF-268 CNS; assay: NCI-60 one-dose screen, 48 h; settings: 10 µM unless noted
About 83,000 compounds went through this panel and 20% of them were active in at least one assay; those are over-represented in the sample as a whole. Activity calls are given as the source filed them. How the source made its calls: active means growth percent below 10; inactive means the rest.
Your response should consist of one outcome taken from YES for active, NO for inactive

Take a look at these entries with their results.
molecule="Cc1cc(N2CCN(C)CC2)nc(NC2CCCC(Nc3ccnc4cc(Cl)ccc34)C2)n1 (configuration not stated)" target="SF-268 CNS" assignedlabel=YES
molecule=O=C(COc1ccc(-c2nc3cc(Cl)c(Cl)cc3[nH]2)cc1)N=Nc1c(O)[nH]c2ccccc12 target="SF-268 CNS" assignedlabel=YES
molecule=O=C(O)c1c(=O)cccc2ssc12 target="SF-268 CNS" assignedlabel=YES
molecule=CN1CCN(c2ccc3nc(-c4ccc(OCCCCN5CCN(CCCCN6C(=O)c7cccc8cccc(c78)C6=O)CC5)cc4)[nH]c3c2)CC1 target="SF-268 CNS" assignedlabel=NO
molecule=O=c1ccccc(-c2ccc(Br)cc2)c1O target="SF-268 CNS" assignedlabel=NO

# outcome recorded in this test, key = COc1cc(-c2nc(C(=O)NCC(=O)NO)nn2-c2ccc(Cl)cc2)cc(OC)c1OC
NO

Fill in: this test's call for Cc1ccc2c(c1)C(=O)/C(=C/c1cccc(OCC(=O)c3ccc(Cl)cc3)c1)CS2 is ___
NO

Identify the outcome logged in this assay for the molecule shown: CC(C)CSc1nc(N)nc2c1ncn2C1OC(CO)C(O)C1O (configuration not stated)
NO

Per the records of this test, what outcome belongs to CON1C(=O)CC[C@]2(C)[C@H]3CC[C@@H]4C([C@@]5(C)CCC(=O)O5)CC[C@@]4(C)[C@]3(C)CC[C@H]2C1(C)C (some centres not stated) ?
NO

How did this test come out for Oc1ccc(N=Cc2ccccc2O)cc1 ?
NO

Recorded call for COc1ccc(C2C(C#N)=C(N)Oc3n[nH]c(-c4cccs4)c32)cc1I (configuration not stated) ?
NO

Please state the recorded outcome for this molecule: C#CCOc1ccc2ncnc(Nc3cccc(CNC(=O)CCl)c3)c2c1
NO

Lab log entry: CC1=C/C(=C(\c2ccc(N(C)C)cc2)c2ccc([N+](C)(C)C)cc2)C=CC1=[N+](C)C — outcome as called in the assay?
NO
